These entries and their values trace back to patent US20220177604A1.

target: T1, human immunoglobulin E (hIgE) (human, UniProt P01854-1 1-428); assay: SPR (Biacore), pH 6.0
T1 construct: also called human IgE; Native IgE (Abcam)
T1 sequence (P01854 whole entry): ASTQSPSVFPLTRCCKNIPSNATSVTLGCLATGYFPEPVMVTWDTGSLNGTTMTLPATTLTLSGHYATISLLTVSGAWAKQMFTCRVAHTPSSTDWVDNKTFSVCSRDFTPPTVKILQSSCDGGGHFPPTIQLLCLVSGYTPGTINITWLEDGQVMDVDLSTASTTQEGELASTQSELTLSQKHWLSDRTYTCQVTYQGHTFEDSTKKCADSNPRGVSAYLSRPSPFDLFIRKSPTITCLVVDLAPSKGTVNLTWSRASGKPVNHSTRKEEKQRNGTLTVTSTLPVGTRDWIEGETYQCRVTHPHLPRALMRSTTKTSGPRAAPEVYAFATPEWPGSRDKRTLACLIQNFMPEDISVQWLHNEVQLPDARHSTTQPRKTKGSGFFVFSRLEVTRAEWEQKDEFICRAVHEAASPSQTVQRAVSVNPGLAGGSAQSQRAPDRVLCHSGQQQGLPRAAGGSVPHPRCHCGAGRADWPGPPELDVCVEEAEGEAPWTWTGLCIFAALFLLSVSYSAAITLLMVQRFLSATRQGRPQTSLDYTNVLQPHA
Parameter: kon (M⁻¹ s⁻¹)
Return type: number; implicit unit M⁻¹ s⁻¹.

Please report the recorded kon for OmaVH15G55H - VL3S31H (antibody, V domains shown) VH: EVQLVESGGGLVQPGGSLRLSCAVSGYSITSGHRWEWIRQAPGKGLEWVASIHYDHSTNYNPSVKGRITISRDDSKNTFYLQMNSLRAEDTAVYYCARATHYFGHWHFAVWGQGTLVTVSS VL: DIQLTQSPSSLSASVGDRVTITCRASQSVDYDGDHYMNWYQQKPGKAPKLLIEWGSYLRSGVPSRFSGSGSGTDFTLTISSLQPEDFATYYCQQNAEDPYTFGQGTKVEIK .
329000

Now give it for Oma VH15W100b - VL3D28HS31H (antibody, V domains shown) VH: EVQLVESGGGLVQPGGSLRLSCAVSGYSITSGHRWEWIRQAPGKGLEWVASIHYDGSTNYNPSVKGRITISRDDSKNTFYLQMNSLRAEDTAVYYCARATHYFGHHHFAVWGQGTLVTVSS VL: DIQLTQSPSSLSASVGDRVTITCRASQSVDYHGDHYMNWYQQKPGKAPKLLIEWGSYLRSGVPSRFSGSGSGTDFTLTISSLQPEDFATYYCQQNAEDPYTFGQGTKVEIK too.
453000

Now give it for Oma VH15W100b - VL3S31H (antibody, V domains shown) VH: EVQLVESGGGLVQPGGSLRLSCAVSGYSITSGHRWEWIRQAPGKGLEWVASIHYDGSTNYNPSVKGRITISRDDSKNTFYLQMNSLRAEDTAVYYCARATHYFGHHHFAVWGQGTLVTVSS VL: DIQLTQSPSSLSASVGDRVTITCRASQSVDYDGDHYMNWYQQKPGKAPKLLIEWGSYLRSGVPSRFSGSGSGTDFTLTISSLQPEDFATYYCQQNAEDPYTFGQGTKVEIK too.
206000
